measured.on: HA of ca A/Sydney/5/97 (H3N2) virus (influenza A virus)
test: cell-based or functional assay
measure: Neutralization IC50, H3-Syd97 (µg/mL)
One number for each entry, in µg/mL.

* Antibody 5 (antibody, V domains shown) VH: QVQLQQSGPGLVKPSQTLSLTCAISGDRVSSNSAVWNWIRQSPSRGLEWLGRTYYRSKWYYDYAESVKSRIVIDPDTSKNQVSLQLNSVTPEDSAIYYCARGGHITVFGLNIDAYDIWGQGAMVTVSS VL: DIQMTQSPSSLSASVGDRVTISCRAQSLSSYLHWYQQKPGQPPKLLIYAATTLQSGVPSRFSGSGSGTDFTLTISTFQAEDVATYYCQQSRTFGQGTKVEIK | 3.03
* Antibody 3 (antibody, V domains shown) VH: QVQLQESGPGLVKPSQTLSLTCAISGDSVSSNNAVWNWIRQSPSRGLEWLGRTYYRSKWYNDYAESVKSRITVNPDTSKNQFSLHLKSVTPEDTAVFYCVRSGHITVFGVNVDAFDMWGQGTMVTVSS VL: DIQMTQSPSSLSASVGDRVTITCRTSQSLSSYLHWYQQKPGKAPKLLIYAASSLQSGVPSRFSGSGSGTDFTLTISSLQPEDFATYYCQQSRTFGQGTKVEIK | 3.75

Record Antibody 10 (antibody, V domains shown) VH: QVQLQQSGPGLVKPSQTLSLTCAISGDSVSSNSATWNWIRQSPSRGLEWLGRTYYRSKWYNDYADFLKRRITINPDTSNNEVSLRLTSVTPDDTALYYCARGGHITVFGVNIDAFDVWGQGTMVTVSS VL: DIQMTQSPSSLSASVGDRITISCRTSQSLRSYLHWYQQKPGKAPKLLIYASSTLQSGVPSRFSGSGSGTDFTLTISNLQPEDFATYYCQLSRTFGQGTKVEIK , field Neutralization IC50, H3-Syd97: 9.29
